Measured on: T1, ARFGEF2 639-829 Sec7 (domain begin residue: 639, domain end residue: 829), Q9Y6D5
T1 chain: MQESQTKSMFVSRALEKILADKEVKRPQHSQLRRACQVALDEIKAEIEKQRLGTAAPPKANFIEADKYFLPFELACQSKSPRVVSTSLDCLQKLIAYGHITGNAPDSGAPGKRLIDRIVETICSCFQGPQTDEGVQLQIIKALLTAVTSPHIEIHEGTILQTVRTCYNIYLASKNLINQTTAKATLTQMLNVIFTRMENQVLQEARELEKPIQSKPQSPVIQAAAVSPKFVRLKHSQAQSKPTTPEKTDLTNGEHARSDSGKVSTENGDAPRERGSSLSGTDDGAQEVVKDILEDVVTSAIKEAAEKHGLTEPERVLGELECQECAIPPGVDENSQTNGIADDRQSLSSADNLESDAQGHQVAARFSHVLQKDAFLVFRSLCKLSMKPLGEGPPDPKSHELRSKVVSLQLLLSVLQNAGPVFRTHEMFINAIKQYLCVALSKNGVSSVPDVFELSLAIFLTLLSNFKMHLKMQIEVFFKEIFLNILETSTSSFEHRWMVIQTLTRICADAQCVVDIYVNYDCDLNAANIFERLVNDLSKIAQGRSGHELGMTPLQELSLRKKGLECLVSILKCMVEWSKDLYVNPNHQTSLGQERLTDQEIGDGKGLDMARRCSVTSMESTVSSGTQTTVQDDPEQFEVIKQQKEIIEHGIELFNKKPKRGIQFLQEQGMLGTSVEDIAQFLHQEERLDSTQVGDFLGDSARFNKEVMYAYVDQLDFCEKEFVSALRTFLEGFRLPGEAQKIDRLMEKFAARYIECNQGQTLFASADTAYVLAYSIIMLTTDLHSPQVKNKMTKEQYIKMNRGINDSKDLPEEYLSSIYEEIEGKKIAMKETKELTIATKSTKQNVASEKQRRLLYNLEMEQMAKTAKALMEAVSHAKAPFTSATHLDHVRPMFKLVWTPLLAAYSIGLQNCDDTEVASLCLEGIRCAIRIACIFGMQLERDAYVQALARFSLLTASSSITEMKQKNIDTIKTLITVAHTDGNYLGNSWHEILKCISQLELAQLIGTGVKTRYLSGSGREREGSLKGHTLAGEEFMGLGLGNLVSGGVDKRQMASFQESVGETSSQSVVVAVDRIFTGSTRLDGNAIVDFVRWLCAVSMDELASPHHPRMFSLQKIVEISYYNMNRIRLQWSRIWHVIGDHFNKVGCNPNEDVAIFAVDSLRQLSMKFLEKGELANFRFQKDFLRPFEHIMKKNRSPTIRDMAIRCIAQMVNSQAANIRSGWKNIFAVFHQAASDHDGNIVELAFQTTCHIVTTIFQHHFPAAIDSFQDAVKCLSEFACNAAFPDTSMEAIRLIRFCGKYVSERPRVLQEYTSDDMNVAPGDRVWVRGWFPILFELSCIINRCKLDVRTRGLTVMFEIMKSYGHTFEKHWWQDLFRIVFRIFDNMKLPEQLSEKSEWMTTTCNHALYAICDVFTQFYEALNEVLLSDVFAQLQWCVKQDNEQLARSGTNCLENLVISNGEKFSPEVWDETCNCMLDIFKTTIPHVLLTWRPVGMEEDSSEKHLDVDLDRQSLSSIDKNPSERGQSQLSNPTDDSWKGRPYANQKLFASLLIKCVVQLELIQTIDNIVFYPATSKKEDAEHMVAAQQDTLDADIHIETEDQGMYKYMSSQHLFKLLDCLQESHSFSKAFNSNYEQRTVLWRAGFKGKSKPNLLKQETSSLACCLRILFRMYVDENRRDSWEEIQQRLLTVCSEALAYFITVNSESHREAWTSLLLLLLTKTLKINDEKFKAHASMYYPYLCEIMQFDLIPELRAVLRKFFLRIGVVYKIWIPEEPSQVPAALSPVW
Method description: phage ELISA signal ratio (GST-PRM binding over GST background); higher = stronger binding of peptide-phage to the PRM
Measurement type: phage ELISA signal ratio

> print(dat)
             binder          measurement.type  assay.value
1  MPDGLPEWWQGRHDWW  phage ELISA signal ratio         18.2
2  NEGERLWAVLKLWHEE  phage ELISA signal ratio         18.6
3  QITMQQYVELWHAAKS  phage ELISA signal ratio         24.1
4  LTREHVQWDGVMHWIM  phage ELISA signal ratio         16.4
